All figures here come from the supplement of paper PMC6555819.

Test system: PPARg DBDmut IVT, anti-PPARg (DBD mutation: PPARg1 K132A/R137A, NR concentration 270 nM)
Assay: PBM binding z-score (relative to random genomic background probes); higher = stronger binding; sequences stand for … in GC…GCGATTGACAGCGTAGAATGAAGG
Reported PBM binding z-score is given for each of the following sequences.
Returns: the value as a bare number; no unit string appended.

Guide cases for PBM binding z-score, answers given:
{"Biopolymer Sequence": "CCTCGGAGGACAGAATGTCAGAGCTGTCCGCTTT", "Meas Value": -1.68}
{"Biopolymer Sequence": "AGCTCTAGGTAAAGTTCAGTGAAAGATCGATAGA", "Meas Value": 0.107}
{"Biopolymer Sequence": "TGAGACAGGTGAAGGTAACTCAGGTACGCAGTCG", "Meas Value": -0.801}
{"Biopolymer Sequence": "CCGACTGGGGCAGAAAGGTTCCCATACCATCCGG", "Meas Value": -1.78}
{"Biopolymer Sequence": "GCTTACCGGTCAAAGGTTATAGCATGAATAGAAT", "Meas Value": 0.383}
{"Biopolymer Sequence": "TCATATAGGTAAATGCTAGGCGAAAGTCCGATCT", "Meas Value": 0.583}
{"Biopolymer Sequence": "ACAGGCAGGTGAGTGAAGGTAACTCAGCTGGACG", "Meas Value": -0.655}
{"Biopolymer Sequence": "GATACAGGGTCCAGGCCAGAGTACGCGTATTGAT", "Meas Value": -0.0353}

Item under review: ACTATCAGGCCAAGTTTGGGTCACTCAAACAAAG . Reported PBM binding z-score?
0.453

Item under review: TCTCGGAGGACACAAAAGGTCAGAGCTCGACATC . Reported PBM binding z-score?
-0.692

Item under review: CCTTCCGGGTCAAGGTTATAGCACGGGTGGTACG . Reported PBM binding z-score?
0.0375

Item under review: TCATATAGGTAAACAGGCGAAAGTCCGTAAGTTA . Reported PBM binding z-score?
0.916

----------
Reported PBM binding z-score is given for each of the following sequences.
System: PPARg:RXRa (NR concentration 180 nM, RXRa partner concentration 90 nM)
Assay: PBM binding z-score (relative to random genomic background probes); higher = stronger binding; sequences stand for … in GC…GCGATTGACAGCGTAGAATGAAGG
Returns: the value as a bare number; no unit string appended.

Guide cases for PBM binding z-score, answers given:
{"Biopolymer Sequence": "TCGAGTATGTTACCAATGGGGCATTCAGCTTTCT", "PBM binding z-score": -0.157}
{"Biopolymer Sequence": "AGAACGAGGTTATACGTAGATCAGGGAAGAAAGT", "PBM binding z-score": 1.58}
{"Biopolymer Sequence": "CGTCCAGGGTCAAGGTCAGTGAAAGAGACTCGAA", "PBM binding z-score": 6.91}
{"Biopolymer Sequence": "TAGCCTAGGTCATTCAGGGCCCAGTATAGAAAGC", "PBM binding z-score": 1.96}
{"Biopolymer Sequence": "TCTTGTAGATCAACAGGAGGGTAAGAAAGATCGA", "PBM binding z-score": -0.102}

Item under review: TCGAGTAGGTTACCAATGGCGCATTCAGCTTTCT . Reported PBM binding z-score?
0.185

Item under review: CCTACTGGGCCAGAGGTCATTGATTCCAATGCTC . Reported PBM binding z-score?
9.61

Item under review: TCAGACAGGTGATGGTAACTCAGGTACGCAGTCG . Reported PBM binding z-score?
0.601

Item under review: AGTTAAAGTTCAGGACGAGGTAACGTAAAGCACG . Reported PBM binding z-score?
2.49

Item under review: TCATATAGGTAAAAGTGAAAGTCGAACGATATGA . Reported PBM binding z-score?
3.25

----------
Test system: RXRa DBDmut IVT, anti-RXR (DBD mutation: RXRa K156A/R161A, NR concentration 90 nM)
Assay: PBM binding z-score (relative to random genomic background probes); higher = stronger binding; sequences stand for … in GC…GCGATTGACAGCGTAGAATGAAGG
Assign classes using reported PBM binding z-score values and the ranges one: < 0.1; two: ≥ 0.1 and < 1; three: ≥ 1, please.

{"Biopolymer Sequence": "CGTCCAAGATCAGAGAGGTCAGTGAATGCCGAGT", "Target Under Test": "RXRa DBDmut IVT, anti-RXR (DBD mutation: RXRa K156A/R161A, NR concentration 90 nM)", "Group": "two"}
{"Biopolymer Sequence": "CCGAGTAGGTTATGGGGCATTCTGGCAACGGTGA", "Target Under Test": "RXRa DBDmut IVT, anti-RXR (DBD mutation: RXRa K156A/R161A, NR concentration 90 nM)", "Group": "two"}
{"Biopolymer Sequence": "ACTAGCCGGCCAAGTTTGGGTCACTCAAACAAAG", "Target Under Test": "RXRa DBDmut IVT, anti-RXR (DBD mutation: RXRa K156A/R161A, NR concentration 90 nM)", "Group": "one"}
{"Biopolymer Sequence": "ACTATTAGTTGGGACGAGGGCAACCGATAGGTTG", "Target Under Test": "RXRa DBDmut IVT, anti-RXR (DBD mutation: RXRa K156A/R161A, NR concentration 90 nM)", "Group": "one"}
{"Biopolymer Sequence": "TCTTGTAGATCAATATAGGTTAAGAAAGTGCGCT", "Target Under Test": "RXRa DBDmut IVT, anti-RXR (DBD mutation: RXRa K156A/R161A, NR concentration 90 nM)", "Group": "three"}
{"Biopolymer Sequence": "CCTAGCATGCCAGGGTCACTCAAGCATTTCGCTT", "Target Under Test": "RXRa DBDmut IVT, anti-RXR (DBD mutation: RXRa K156A/R161A, NR concentration 90 nM)", "Group": "two"}
{"Biopolymer Sequence": "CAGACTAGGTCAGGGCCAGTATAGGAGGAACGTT", "Target Under Test": "RXRa DBDmut IVT, anti-RXR (DBD mutation: RXRa K156A/R161A, NR concentration 90 nM)", "Group": "one"}
{"Biopolymer Sequence": "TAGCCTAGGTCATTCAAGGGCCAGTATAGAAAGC", "Target Under Test": "RXRa DBDmut IVT, anti-RXR (DBD mutation: RXRa K156A/R161A, NR concentration 90 nM)", "Group": "three"}

Class (by measured PBM binding z-score) for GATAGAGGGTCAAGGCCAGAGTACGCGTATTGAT
three

Class (by measured PBM binding z-score) for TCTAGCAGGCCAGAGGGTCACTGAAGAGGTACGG
one

Class (by measured PBM binding z-score) for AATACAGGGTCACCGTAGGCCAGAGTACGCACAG
three

Class (by measured PBM binding z-score) for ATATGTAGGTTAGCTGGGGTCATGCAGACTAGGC
three

Class (by measured PBM binding z-score) for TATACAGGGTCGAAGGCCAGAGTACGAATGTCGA
two

Class (by measured PBM binding z-score) for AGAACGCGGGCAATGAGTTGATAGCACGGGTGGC
one

Class (by measured PBM binding z-score) for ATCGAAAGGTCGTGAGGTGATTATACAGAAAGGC
three

Class (by measured PBM binding z-score) for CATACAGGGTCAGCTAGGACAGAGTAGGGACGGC
three

Class (by measured PBM binding z-score) for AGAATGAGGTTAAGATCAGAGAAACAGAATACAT
two

Class (by measured PBM binding z-score) for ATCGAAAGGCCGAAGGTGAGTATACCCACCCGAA
one

Class (by measured PBM binding z-score) for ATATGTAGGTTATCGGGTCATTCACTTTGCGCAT
three

Class (by measured PBM binding z-score) for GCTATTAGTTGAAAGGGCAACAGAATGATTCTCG
two

Class (by measured PBM binding z-score) for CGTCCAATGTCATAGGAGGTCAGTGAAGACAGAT
two

----------
Test system: LXRb:RXRa (NR concentration 270 nM, RXRa partner concentration 90 nM)
Assay: PBM binding z-score (relative to random genomic background probes); higher = stronger binding; sequences stand for … in GC…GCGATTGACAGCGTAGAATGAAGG
Reported PBM binding z-score is given for each of the following sequences.
Returns: the value as a bare number; no unit string appended.

{"Biopolymer Sequence": "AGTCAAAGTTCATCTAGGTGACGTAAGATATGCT", "Target Under Test": "LXRb:RXRa (NR concentration 270 nM, RXRa partner concentration 90 nM)", "Meas Value": 3.69}
{"Biopolymer Sequence": "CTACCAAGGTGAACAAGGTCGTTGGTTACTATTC", "Target Under Test": "LXRb:RXRa (NR concentration 270 nM, RXRa partner concentration 90 nM)", "Meas Value": 1.71}

Item under review: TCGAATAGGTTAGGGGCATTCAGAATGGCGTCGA . Reported PBM binding z-score?
1.26

Item under review: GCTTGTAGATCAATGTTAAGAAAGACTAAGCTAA . Reported PBM binding z-score?
-0.517

Item under review: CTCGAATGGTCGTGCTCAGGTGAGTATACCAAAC . Reported PBM binding z-score?
-0.227

Item under review: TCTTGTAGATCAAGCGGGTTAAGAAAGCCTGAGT . Reported PBM binding z-score?
0.225

Item under review: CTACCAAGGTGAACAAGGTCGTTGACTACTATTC . Reported PBM binding z-score?
1.79

Item under review: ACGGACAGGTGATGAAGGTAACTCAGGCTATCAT . Reported PBM binding z-score?
0.109

Item under review: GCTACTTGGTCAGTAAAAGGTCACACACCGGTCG . Reported PBM binding z-score?
4.37

Item under review: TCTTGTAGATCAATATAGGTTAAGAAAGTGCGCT . Reported PBM binding z-score?
1.28

Item under review: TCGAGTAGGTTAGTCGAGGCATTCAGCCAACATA . Reported PBM binding z-score?
-0.531

Item under review: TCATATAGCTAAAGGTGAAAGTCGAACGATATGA . Reported PBM binding z-score?
1.26

Item under review: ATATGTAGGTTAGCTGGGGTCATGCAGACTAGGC . Reported PBM binding z-score?
4.51

Item under review: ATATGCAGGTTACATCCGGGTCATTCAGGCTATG . Reported PBM binding z-score?
2.99

Item under review: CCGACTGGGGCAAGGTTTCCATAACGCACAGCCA . Reported PBM binding z-score?
-0.321

Item under review: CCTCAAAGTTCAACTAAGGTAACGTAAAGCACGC . Reported PBM binding z-score?
4.52

Item under review: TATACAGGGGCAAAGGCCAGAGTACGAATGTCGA . Reported PBM binding z-score?
1.34

Item under review: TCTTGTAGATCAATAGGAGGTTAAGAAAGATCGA . Reported PBM binding z-score?
0.851
